Origin of the recorded values: paper PMC11721293

assay: Pharmacokinetics after single IP administration
study.conditions: K18-hACE2(Tg) C57Bl/6J, mouse, liver, 40 mg/kg
property.measured: Tmax (min)

>>> df
                                 smiles_str  meas_value
0  NC(=O)N1CCC(CC(=O)N2CCC([C@H]3c4ncc(Br)cc4CCc4cc(Cl)cc(Br)c43)CC2)CC1          15

* * *

assay: Pharmacokinetics after single IP administration
study.conditions: K18-hACE2(Tg) C57Bl/6J, mouse, in vivo, 40 mg/kg, C24h, Liver, single IP
property.measured: concentration at 24 h (µM)

>>> print(df.to_string())
                                 smiles_str  measure_unit  meas_value
0  NC(=O)N1CCC(CC(=O)N2CCC([C@H]3c4ncc(Br)cc4CCc4cc(Cl)cc(Br)c43)CC2)CC1            µM        40.3

* * *

assay: Pharmacokinetics after PO administration
study.conditions: K18-hACE2(Tg) C57Bl/6J, mouse, in vivo, 25 mg/kg, t1/2, Kidney, PO
property.measured: half-life (h)

>>> df
                                 smiles_str  meas_value
0  NC(=O)N1CCC(CC(=O)N2CCC([C@H]3c4ncc(Br)cc4CCc4cc(Cl)cc(Br)c43)CC2)CC1         2.4

* * *

assay: Pharmacokinetics after PO administration
study.conditions: K18-hACE2(Tg) C57Bl/6J, mouse, lung, 25 mg/kg
property.measured: AUC(0-inf) (µM·h)

>>> df
                                   compound  measure_unit  meas_value
0  NC(=O)N1CCC(CC(=O)N2CCC([C@H]3c4ncc(Br)cc4CCc4cc(Cl)cc(Br)c43)CC2)CC1 [LNF, lonafarnib]          µM·h         129

* * *

assay: Pharmacokinetics after single IP administration
study.conditions: K18-hACE2(Tg) C57Bl/6J, mouse, heart, 40 mg/kg
property.measured: Cmax (µM)

                                   compound  property_measured  measure_unit  meas_value
0  NC(=O)N1CCC(CC(=O)N2CCC([C@H]3c4ncc(Br)cc4CCc4cc(Cl)cc(Br)c43)CC2)CC1 [LNF, lonafarnib]               Cmax            µM        94.1

* * *

assay: Pharmacokinetics after single IP administration
study.conditions: K18-hACE2(Tg) C57Bl/6J, mouse, brain, 40 mg/kg
property.measured: AUC(0-inf) (µM·h)

>>> print(df.to_string())
                                 smiles_str  property_measured  meas_value
0  NC(=O)N1CCC(CC(=O)N2CCC([C@H]3c4ncc(Br)cc4CCc4cc(Cl)cc(Br)c43)CC2)CC1         AUC(0-inf)          29

* * *

assay: in vitro
study.conditions: human
property.measured: CC50

                                   compound  meas_value
0  NC(=O)N1CCC(CC(=O)N2CCC([C@H]3c4ncc(Br)cc4CCc4cc(Cl)cc(Br)c43)CC2)CC1 [LNF, lonafarnib]     > 30 µM

* * *

assay: Pharmacokinetics after PO administration
study.conditions: K18-hACE2(Tg) C57Bl/6J, mouse, in vivo, 25 mg/kg, AUC ratio (Tissue/PL), Brain, PO
property.measured: Kp

>>> df
                                   molecule  meas_value
0  NC(=O)N1CCC(CC(=O)N2CCC([C@H]3c4ncc(Br)cc4CCc4cc(Cl)cc(Br)c43)CC2)CC1 [LNF, lonafarnib]       0.056
